# maps each entry to its EC50
# tested-target: human ADRA2B receptor (Homo sapiens, UniProt P18089)
# Construct: expressed in transfected cells
# experiment-notes: GTPγS agonist assay, ADRA2B receptor
# Assay type: biochemical
# assay-conditions: read-out: GTPase - Human Alpha2B EC50

In the examples that follow, each entry is paired with its recorded EC50.
compound	EC50
Cc1nc(C)c(C[C@@H](c2c[nH]cn2)c2cccc(C)c2C)s1	< 10 nM
Cc1cccc([C@@H](Cc2cnco2)c2c[nH]cn2)c1C	> 500 nM
Cc1cc(CC(c2c[nH]cn2)c2cccc(C)c2C)no1 (stereo not drawn)	< 10 nM
Cc1cccc(C(Cc2ncccn2)c2cnc[nH]2)c1C (stereo not drawn)	50 to 500 nM
COc1nccc(CC(c2ccc(C(F)(F)F)cc2)c2c[nH]cn2)n1 (stereo not drawn)	> 500 nM
Cc1cccc([C@@H](Cc2cccnn2)c2c[nH]cn2)c1Cl	> 500 nM
Cc1nccc(CC(c2c[nH]cn2)c2cccc3c2ccn3C)n1 (stereo not drawn)	< 10 nM
Clc1cccc(C(Cc2cccnn2)c2c[nH]cn2)c1Cl (stereo not drawn)	50 to 500 nM

Lab note: next compound to report on.
Reported EC50 for COc1nccc(CC(c2c[nH]cn2)c2cccc(Cl)c2C)n1 (stereo not drawn) : what is it?
< 10 nM

----------
# tested-target: human ADRA2B receptor (Homo sapiens)
# Construct: expressed in transfected cells
# experiment-notes: ADRA2B arrestin agonist assay
# Assay type: cell-based
# assay-conditions: CHO-K1 cells stably expressing human ADRA2B; read-out: Beta-Arrestin - Human Alpha2B EC50
pEC50: −log10 of the molar value.
# maps each entry to its pEC50

In the examples that follow, each entry is paired with its recorded pEC50.
compound	reported-property	endpoint-result
Cc1cc(CC(c2c[nH]cn2)c2cccc(C)c2C)c(F)cn1 (stereo not drawn)	pEC50	> 8.00
Cc1cccc([C@@H](Cc2ccnn2C)c2c[nH]cn2)c1F	pEC50	6.30 to 7.30
Cc1cccc(C(Cc2nc(CO)ccc2F)c2c[nH]cn2)c1C (stereo not drawn)	pEC50	> 8.00
Cc1cc(CC(c2c[nH]cn2)c2cccc(C)c2C)c(Cl)cn1 (stereo not drawn)	pEC50	> 8.00
Cc1nc(C[C@H](c2c[nH]cn2)c2cccc(C)c2C)c(C)o1	pEC50	< 6.30
COc1c(C)cccc1[C@@H](Cc1ccnn1C)c1c[nH]cn1	pEC50	< 6.30
COc1nccc(CC(c2c[nH]cn2)c2ccccc2OC2CC2)n1 (stereo not drawn)	pEC50	7.30 to 8.00
Cc1nccc(CC(c2c[nH]cn2)c2cccc(Cl)c2Cl)n1 (stereo not drawn)	pEC50	> 8.00

Reported pEC50 for `c1cc2c(c([C@H](Cc3cc[nH]n3)c3c[nH]cn3)c1)OCC2` : what is it?
7.30 to 8.00

----------
# tested-target: human ADRA2B receptor (Homo sapiens)
# Construct: expressed in transfected cells
# experiment-notes: ADRA2B arrestin agonist assay
# Assay type: cell-based
# assay-conditions: CHO-K1 cells stably expressing human ADRA2B; read-out: Beta-Arrestin - Human Alpha2B EC50
pEC50: −log10 of the molar value.
# maps each entry to its pEC50

compound	pEC50
Cn1ccc2cccc(C(Cc3cc[nH]n3)c3c[nH]cn3)c21 (stereo not drawn)	< 6.30
Cc1cccc([C@@H](Cc2cn[nH]c2)c2c[nH]cn2)c1C	< 6.30
OCc1nccc(CC(c2c[nH]cn2)c2cccc3c2OCC3)n1 (stereo not drawn)	> 8.00
Fc1c(Cl)cccc1C(Cc1cnco1)c1c[nH]cn1 (stereo not drawn)	7.30 to 8.00

Reported pEC50 for Cc1cccc(C(Cc2cccnc2C)c2c[nH]cn2)c1C (stereo not drawn) : what is it?
7.30 to 8.00

Reported pEC50 for `c1cc2c(c([C@@H](Cc3cc[nH]n3)c3c[nH]cn3)c1)OCC2` : what is it?
< 6.30

Reported pEC50 for `Cc1cccc([C@H](Cc2ccn(C3COC3)n2)c2c[nH]cn2)c1C` : what is it?
7.30 to 8.00

Reported pEC50 for `Cc1cccc([C@H](Cc2cccc(C(C)(C)O)n2)c2c[nH]cn2)c1C` : what is it?
< 6.30

Reported pEC50 for `Cc1nccc(C[C@@H](c2c[nH]cn2)c2cccc(C)c2F)n1` : what is it?
> 8.00

----------
# tested-target: human ADRA2B receptor (Homo sapiens)
# Construct: expressed in transfected cells
# experiment-notes: GTPγS agonist assay, ADRA2B receptor
# Format: biochemical
# assay-conditions: read-out: GTPase - Human Alpha2B EC50
# maps each entry to its EC50

In the examples that follow, each entry is paired with its recorded EC50.
compound	endpoint-result
COc1nccc(CC(c2c[nH]cn2)c2cccc3c2cnn3C)n1 (stereo not shown)	10 to 50 nM
FC1(F)Oc2cccc([C@@H](Cc3ccccn3)c3c[nH]cn3)c2O1	50 to 500 nM
COc1cccc(C[C@@H](c2cnc[nH]2)c2cccc(OC)c2C)n1	< 10 nM
COc1nccc(CC(c2c[nH]cn2)c2cccc3c2OCCCO3)n1 (stereo not shown)	50 to 500 nM
FC(F)Oc1ccccc1C(Cc1ccccn1)c1c[nH]cn1 (stereo not shown)	> 500 nM
Cc1ccnc(C[C@H](c2cnc[nH]2)c2cccc(C)c2C)n1	> 500 nM

Reported EC50 for `c1cnnc(C[C@@H](c2c[nH]cn2)c2cccc3c2CCO3)c1` : what is it?
> 500 nM

----------
# tested-target: human ADRA2B receptor (Homo sapiens)
# Construct: expressed in transfected cells
# experiment-notes: GTPγS agonist assay, ADRA2B receptor
# Assay type: biochemical
# assay-conditions: read-out: GTPase - Human Alpha2B EC50
pEC50: −log10 of the molar value.
reported-property: pEC50

In the examples that follow, each entry is paired with its recorded pEC50.
input-smiles	tested-target	reported-property	endpoint-result
Cc1cc(C[C@@H](c2cnc[nH]2)c2cccc(C)c2C)n(C)n1	human ADRA2B receptor (Homo sapiens)	pEC50	> 8.00
Cc1cccc([C@H](Cc2ccnn2C)c2c[nH]cn2)c1C	human ADRA2B receptor (Homo sapiens)	pEC50	7.30 to 8.00
Cc1cccc([C@H](Cc2ccccn2)c2cnc[nH]2)c1C	human ADRA2B receptor (Homo sapiens)	pEC50	6.30 to 7.30
Cc1cccc([C@H](Cc2cccc(C(F)(F)F)n2)c2c[nH]cn2)c1C	human ADRA2B receptor (Homo sapiens)	pEC50	> 8.00

Reported pEC50 for `FC(F)Oc1cccc([C@H](Cc2ccccn2)c2cnc[nH]2)c1` : what is it?
7.30 to 8.00

Reported pEC50 for `Cc1cccc([C@@H](Cc2cccnc2)c2cnc[nH]2)c1C` : what is it?
> 8.00

Reported pEC50 for `c1cc2c(c([C@@H](Cc3cnn(C4CC4)c3)c3c[nH]cn3)c1)OCC2` : what is it?
< 6.30

Reported pEC50 for `Cc1cccc([C@H](Cc2ccnc(C(F)(F)F)n2)c2cnc[nH]2)c1C` : what is it?
> 8.00

Reported pEC50 for `COc1cccc(C[C@@H](c2cnc[nH]2)c2cccc(C)c2OC)n1` : what is it?
< 6.30

----------
# tested-target: human ADRA2B receptor (Homo sapiens)
# Construct: expressed in transfected cells
# Sequence (P18089 1-450): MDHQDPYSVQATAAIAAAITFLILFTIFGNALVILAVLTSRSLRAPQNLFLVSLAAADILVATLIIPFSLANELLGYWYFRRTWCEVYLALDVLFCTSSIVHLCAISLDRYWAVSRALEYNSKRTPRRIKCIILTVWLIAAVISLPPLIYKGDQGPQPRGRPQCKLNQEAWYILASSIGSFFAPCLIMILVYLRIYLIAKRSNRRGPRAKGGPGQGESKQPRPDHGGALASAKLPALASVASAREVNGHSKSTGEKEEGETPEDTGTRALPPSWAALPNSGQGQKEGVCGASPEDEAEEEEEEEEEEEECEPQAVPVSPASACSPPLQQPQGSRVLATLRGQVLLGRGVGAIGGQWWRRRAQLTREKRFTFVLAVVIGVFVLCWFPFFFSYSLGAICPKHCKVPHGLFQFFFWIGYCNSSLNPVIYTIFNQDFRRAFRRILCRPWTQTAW
# experiment-notes: ADRA2B arrestin agonist assay
# Type: cell-based
# assay-conditions: CHO-K1 cells stably expressing human ADRA2B; read-out: Beta-Arrestin - Human Alpha2B EC50
reported-property: EC50

In the examples that follow, each entry is paired with its recorded EC50.
compound	tested-target	endpoint-result
[2H]C([2H])([2H])Oc1c(C)cccc1C(Cc1ccnc(C)n1)c1c[nH]cn1 (centres unmarked)	human ADRA2B receptor (Homo sapiens)	10 to 50 nM
c1cc2c(c([C@@H](Cc3cocn3)c3c[nH]cn3)c1)OCCO2	human ADRA2B receptor (Homo sapiens)	> 500 nM
Cn1nc2ccccc2c1CC(c1c[nH]cn1)c1cccc2c1OCC2 (centres unmarked)	human ADRA2B receptor (Homo sapiens)	10 to 50 nM
Cc1cc(C[C@H](c2c[nH]cn2)c2cccc(C)c2F)ncn1	human ADRA2B receptor (Homo sapiens)	> 500 nM
Cc1cccc([C@@H](Cc2cn(C)nn2)c2c[nH]cn2)c1C	human ADRA2B receptor (Homo sapiens)	> 500 nM
Cc1cccc([C@@H](Cc2cccc(CF)n2)c2c[nH]cn2)c1C	human ADRA2B receptor (Homo sapiens)	< 10 nM

Please provide the recorded EC50 for `Cc1cccc([C@@H](Cc2cccc(C(C)(C)O)n2)c2c[nH]cn2)c1C` , tested on human ADRA2B receptor (Homo sapiens).
< 10 nM

Please provide the recorded EC50 for Cc1cccc(C(Cc2ccncc2F)c2c[nH]cn2)c1C (centres unmarked) , tested on human ADRA2B receptor (Homo sapiens).
< 10 nM

Please provide the recorded EC50 for `CC(C)n1cc(C[C@H](c2c[nH]cn2)c2cccc3c2OCC3)cn1` , tested on human ADRA2B receptor (Homo sapiens).
< 10 nM

Please provide the recorded EC50 for Cc1cccc(C(Cc2ccncc2Cl)c2c[nH]cn2)c1C (centres unmarked) , tested on human ADRA2B receptor (Homo sapiens).
< 10 nM

Please provide the recorded EC50 for COc1nc(CC(c2c[nH]cn2)c2cccc3c2OCC3)ccc1F (centres unmarked) , tested on human ADRA2B receptor (Homo sapiens).
< 10 nM

Please provide the recorded EC50 for COc1c(C)cccc1C(Cc1cnco1)c1c[nH]cn1 (centres unmarked) , tested on human ADRA2B receptor (Homo sapiens).
50 to 500 nM
